- Test Target: full-length ATR (Homo sapiens (Human), UniProt Q13535)
- Sequence (Q13535 whole entry): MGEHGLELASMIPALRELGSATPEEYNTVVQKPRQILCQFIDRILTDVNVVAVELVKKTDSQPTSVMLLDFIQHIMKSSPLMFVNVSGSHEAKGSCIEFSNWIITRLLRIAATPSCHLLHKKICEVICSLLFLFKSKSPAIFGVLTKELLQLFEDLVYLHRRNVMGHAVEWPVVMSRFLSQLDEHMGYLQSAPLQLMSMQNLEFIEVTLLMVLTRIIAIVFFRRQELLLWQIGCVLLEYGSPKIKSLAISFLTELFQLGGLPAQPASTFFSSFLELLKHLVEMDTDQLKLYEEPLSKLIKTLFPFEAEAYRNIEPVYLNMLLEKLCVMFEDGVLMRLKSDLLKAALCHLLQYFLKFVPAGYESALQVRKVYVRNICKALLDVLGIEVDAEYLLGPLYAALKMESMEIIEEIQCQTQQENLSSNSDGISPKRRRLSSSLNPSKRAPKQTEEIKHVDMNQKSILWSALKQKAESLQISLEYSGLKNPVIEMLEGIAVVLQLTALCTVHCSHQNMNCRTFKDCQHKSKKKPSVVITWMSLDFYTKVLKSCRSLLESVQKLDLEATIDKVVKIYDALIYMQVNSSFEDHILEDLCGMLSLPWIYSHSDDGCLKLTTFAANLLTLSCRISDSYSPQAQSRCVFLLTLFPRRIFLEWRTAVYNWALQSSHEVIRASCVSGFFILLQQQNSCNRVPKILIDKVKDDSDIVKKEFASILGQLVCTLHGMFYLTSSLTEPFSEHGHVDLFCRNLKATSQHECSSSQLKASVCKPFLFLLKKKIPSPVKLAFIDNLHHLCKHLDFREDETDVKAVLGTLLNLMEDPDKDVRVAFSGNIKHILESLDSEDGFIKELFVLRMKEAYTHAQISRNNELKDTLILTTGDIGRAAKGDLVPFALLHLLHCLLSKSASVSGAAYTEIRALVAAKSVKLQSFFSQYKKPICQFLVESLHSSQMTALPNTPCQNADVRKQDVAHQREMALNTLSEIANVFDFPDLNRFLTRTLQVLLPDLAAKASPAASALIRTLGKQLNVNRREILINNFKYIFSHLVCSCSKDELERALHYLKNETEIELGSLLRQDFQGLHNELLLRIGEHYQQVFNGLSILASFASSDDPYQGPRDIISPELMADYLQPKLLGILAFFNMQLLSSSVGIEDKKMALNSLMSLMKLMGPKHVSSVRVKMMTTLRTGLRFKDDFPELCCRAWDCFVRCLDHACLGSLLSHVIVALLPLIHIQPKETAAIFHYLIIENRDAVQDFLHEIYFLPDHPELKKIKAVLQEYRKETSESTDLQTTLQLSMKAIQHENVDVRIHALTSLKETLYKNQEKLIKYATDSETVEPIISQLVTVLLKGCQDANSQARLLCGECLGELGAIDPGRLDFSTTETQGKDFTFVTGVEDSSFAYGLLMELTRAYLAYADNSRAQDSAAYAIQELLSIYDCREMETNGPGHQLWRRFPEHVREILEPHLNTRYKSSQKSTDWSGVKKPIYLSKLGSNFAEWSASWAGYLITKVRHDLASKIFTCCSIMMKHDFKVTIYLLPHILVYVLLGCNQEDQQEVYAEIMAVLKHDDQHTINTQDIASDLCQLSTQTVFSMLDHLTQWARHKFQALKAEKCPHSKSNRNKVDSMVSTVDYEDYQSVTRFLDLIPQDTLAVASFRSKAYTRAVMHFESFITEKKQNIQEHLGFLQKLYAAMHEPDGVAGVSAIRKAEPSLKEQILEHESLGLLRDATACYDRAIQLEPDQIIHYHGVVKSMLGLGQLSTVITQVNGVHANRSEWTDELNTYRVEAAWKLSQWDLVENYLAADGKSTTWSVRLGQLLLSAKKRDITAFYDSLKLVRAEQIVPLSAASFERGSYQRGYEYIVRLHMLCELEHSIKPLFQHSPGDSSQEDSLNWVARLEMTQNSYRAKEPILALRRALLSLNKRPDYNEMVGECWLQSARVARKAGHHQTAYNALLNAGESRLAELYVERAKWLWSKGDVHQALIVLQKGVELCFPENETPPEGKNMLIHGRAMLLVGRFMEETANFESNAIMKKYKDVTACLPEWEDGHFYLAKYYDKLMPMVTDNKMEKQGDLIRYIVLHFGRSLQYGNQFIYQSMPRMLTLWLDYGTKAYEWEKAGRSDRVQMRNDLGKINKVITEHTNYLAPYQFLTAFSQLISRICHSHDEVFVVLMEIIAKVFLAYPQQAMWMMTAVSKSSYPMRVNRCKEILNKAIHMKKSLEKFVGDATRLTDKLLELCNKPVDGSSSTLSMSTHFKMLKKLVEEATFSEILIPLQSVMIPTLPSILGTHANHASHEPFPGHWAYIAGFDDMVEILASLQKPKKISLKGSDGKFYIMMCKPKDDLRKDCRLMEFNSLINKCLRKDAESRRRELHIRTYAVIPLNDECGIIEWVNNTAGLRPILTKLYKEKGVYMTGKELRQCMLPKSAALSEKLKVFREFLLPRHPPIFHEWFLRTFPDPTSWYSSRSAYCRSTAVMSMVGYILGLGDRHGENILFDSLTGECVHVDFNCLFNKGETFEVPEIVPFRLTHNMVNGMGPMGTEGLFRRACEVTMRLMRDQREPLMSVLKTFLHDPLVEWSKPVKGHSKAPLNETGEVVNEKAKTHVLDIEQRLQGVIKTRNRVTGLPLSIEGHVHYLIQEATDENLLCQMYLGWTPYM
- Assay Comment: ATR Inhibition Assay (radioactive-phosphate incorporation)
- Assay type: biochemical
- Test Parameters: read-out: ATR Ki
pKi: −log10 of the molar value.
Readout: pKi

>>> df
                                   compound  readout   value
0  CC(C)S(=O)(=O)c1ccc(-c2cnc(N)c(-c3nnc(-c4ccc(CNCCF)cc4)o3)n2)cc1      pKi  ≥ 8.00
1  CC(C)[S+]([O-])c1ccc(-c2cnc(N)c(-c3nnc(-c4ccccc4)o3)n2)cc1 (stereo not shown)      pKi  ≥ 8.00
2  CCc1cc(-c2cnc(N)c(-c3nnc(-c4ccc(CNC)cc4)o3)n2)ccc1S(=O)(=O)C(C)C      pKi  ≥ 8.00

q: Which pKi is reported with full-length ATR (Homo sapiens (Human), UniProt Q13535) for this entry: CC(C)Sc1ccccc1-c1cnc(N)c(-c2nnc(-c3ccccc3)o2)n1 ?
a: 5.30 to 7.00

q: Which pKi is reported with full-length ATR (Homo sapiens (Human), UniProt Q13535) for this entry: CN(C)C(=O)c1ccc(-c2cnc(N)c(-c3nnc(-c4ccccn4)o3)n2)cc1 ?
a: 7.00 to 8.00

Taken from patent US10479784B2.
